# credit: paper PMC9732672

measured quantity: melting point

Would you please look over these solved cases?
INSERT INTO measurements (compound, measured_quantity, experimental_value) VALUES
  ('COc1ccc(Nc2nc(N3CCOCC3)nc(-n3ncc(C#N)c3-c3c[nH]c4ccccc34)n2)cc1 [Compound 5k]', 'melting point', '293 to 295 °C'),
  ('N#Cc1cnn(-c2nc(Nc3ccccc3)nc(N3CCOCC3)n2)c1-c1c[nH]c2ccccc12 [Compound 5h]', 'melting point', '314 to 316 °C'),
  ('Nc1cc(-c2c[nH]c3ccccc23)nn1-c1nc(N2CCOCC2)nc(N2CCOCC2)n1 [Compound 3b]', 'melting point', '188 to 189 °C'),
  ('Nc1cc(-c2c[nH]c3ccccc23)nn1-c1nc(Nc2ccc(Br)cc2)nc(N2CCCCC2)n1 [Compound 3f]', 'melting point', '271 to 274 °C'),
  ('COc1ccc(Nc2nc(N3CCCCC3)nc(-n3ncc(C#N)c3-c3c[nH]c4ccccc34)n2)cc1 [Compound 5g]', 'melting point', '273 to 275 °C');

Input line: // lookup melting point for N#Cc1cnn(-c2nc(Nc3ccccc3)nc(N3CCCCC3)n2)c1-c1c[nH]c2ccccc12 [Compound 5d]
Output line: 298 to 299 °C

Input line: Could you do the same for Nc1cc(-c2c[nH]c3ccccc23)nn1-c1nc(N2CCCCC2)nc(N2CCOCC2)n1 [Compound 3c] , please?
Output line: 178 to 179 °C

Input line: Would you mind doing N#Cc1cnn(-c2nc(N3CCOCC3)nc(N3CCOCC3)n2)c1-c1c[nH]c2ccccc12 [Compound 5b] as well?
Output line: 328 to 330 °C

Input line: Please answer likewise for Nc1cc(-c2c[nH]c3ccccc23)nn1-c1nc(N2CCCCC2)nc(N2CCCCC2)n1 [Compound 3a]
Output line: 288 to 290 °C

Input line: Please give the result for Nc1cc(-c2c[nH]c3ccccc23)nn1-c1nc(Nc2ccc(Cl)cc2)nc(N2CCCCC2)n1 [Compound 3e] too.
Output line: 295 to 296 °C

###

molecular target: CDK-2 (Homo sapiens, UniProt P24941)
measured quantity: IC50 (nM)
Response body: numeric value in nM, unit text excluded.

Input line: Which IC50 value belongs to `Nc1cc(-c2c[nH]c3ccccc23)nn1-c1nc(Nc2ccc(Br)cc2)nc(N2CCOCC2)n1` ?
Output line: 136

###

molecular target: UniProt P00533
Sequence (P00533 25-1210): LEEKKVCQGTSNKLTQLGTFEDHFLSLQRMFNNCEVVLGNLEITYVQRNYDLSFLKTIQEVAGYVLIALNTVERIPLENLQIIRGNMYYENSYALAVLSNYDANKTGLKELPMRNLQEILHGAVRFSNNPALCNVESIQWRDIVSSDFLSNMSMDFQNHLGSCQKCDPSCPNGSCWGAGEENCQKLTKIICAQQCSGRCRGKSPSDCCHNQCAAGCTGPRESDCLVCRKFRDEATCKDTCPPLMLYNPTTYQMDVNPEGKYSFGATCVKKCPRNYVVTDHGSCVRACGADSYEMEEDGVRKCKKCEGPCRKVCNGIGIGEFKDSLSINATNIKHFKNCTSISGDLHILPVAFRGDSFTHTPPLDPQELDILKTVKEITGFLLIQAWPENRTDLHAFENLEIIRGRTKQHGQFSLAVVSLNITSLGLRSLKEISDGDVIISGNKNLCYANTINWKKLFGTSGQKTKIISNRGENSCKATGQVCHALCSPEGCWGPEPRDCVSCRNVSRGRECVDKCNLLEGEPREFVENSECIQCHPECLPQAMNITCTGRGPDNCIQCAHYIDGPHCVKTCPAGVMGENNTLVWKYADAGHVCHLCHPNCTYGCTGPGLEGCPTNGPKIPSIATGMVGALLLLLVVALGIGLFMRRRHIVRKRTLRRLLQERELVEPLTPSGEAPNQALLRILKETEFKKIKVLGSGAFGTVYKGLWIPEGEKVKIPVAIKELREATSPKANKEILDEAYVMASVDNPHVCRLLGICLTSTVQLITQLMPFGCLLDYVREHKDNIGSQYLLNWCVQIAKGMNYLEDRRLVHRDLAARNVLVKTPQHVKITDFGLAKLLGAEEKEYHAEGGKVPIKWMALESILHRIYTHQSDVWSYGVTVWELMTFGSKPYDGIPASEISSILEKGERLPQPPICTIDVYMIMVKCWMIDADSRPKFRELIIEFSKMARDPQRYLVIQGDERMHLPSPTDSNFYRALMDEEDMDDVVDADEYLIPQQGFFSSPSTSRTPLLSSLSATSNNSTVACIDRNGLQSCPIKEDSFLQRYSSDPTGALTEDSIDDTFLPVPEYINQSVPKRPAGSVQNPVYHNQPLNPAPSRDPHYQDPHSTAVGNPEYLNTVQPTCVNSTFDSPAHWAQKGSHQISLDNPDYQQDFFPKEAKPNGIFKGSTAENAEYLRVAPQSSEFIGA
measured quantity: pIC50
Formally, pIC50 is defined as -log10 of the concentration c, with c in mol/L.

Input line: Notebook entry, UniProt P00533 assay: pIC50 of `Nc1cc(-c2c[nH]c3ccccc23)nn1-c1nc(Nc2ccccc2)nc(N2CCOCC2)n1` = ?
Output line: 7.19
